# Procedure details: LYSA solubility study
# Format: physicochemical
# Test conditions: aqueous solubility, 0.05M phosphate buffer pH 6.5
Can you tell me LYSA of Prodrugs for the items I'm about to list?
Give bare numbers, in µg/mL.

{"columns": ["Molecule", "Metric name", "Reported result"],
 "data": [
  ["CCCN(C)C(=O)n1c(=O)n(Cc2ccc(C)cc2)c2nc([S@@](=N)(=O)CCC)nc(N)c21 (stereo in doubt) [Example 36-B]", "LYSA of Prodrugs", 209]
]}

# return LYSA of Prodrugs for each item in the list
1. CCN(C)C(=O)n1c(=O)n(Cc2ccc(F)cc2)c2nc(S(=N)(=O)CC)nc(N)c21 (single isomer, unassigned) [Example 46-A]
2. CCCN(C)C(=O)n1c(=O)n(Cc2ccccc2)c2nc(S(=N)(=O)CCC)nc(N)c21 (single isomer, unassigned) [Example 1-B]

[205, 200]

* * *

# Procedure details: Single dose PK study in male Wister-Han rats
# Assay type: in vivo
# Test conditions: male, Wister-Han, rat, plasma, po, 5 mg/kg, 5 mg/kg oral dosing of active form, 4 h
Metric name: concentration at 4 h (nM)
Give bare numbers, in nM.

{"columns": ["Molecule", "U", "concentration at 4 h"],
 "data": [
  ["CCS(=O)(=O)c1nc(N)c2[nH]c(=O)n(Cc3ccc(Cl)cc3)c2n1 [Example S-2, reference compound]", "nM", 47.5],
  ["CCS(=O)(=O)c1nc(N)c2[nH]c(=O)n(Cc3ccc(C)cc3)c2n1 [Example S-3, reference compound]", "nM", 11.5],
  ["CC[S@@](=N)(=O)c1nc(N)c2[nH]c(=O)n(Cc3ccc(C)cc3)c2n1 (single isomer, unassigned) [Compound 43e-A]", "nM", 8.2]
]}

# return concentration at 4 h for each item in the list
1. CCCCOc1nc(N)c2c(n1)N(Cc1cccc(CN3CCCC3)c1)CC(=O)N2 [GS9620, reference compound]
2. CC[S@](=N)(=O)c1nc(N)c2[nH]c(=O)n(Cc3ccc(Cl)cc3)c2n1 (single isomer, unassigned) [Compound 41c-A]
3. CCS(=N)(=O)c1nc(N)c2[nH]c(=O)n(Cc3ccc(F)cc3)c2n1 (single isomer, unassigned) [Compound 45e-A]
4. CC[S@@](=N)(=O)c1nc(N)c2[nH]c(=O)n(Cc3ccc(Cl)cc3)c2n1 (single isomer, unassigned) [Compound 41c-B]

16.7
27.4
77.8
2.52

* * *

# Measured target: human TLR7 (Homo sapiens)
# Sequence (Q9NYK1 27-1049): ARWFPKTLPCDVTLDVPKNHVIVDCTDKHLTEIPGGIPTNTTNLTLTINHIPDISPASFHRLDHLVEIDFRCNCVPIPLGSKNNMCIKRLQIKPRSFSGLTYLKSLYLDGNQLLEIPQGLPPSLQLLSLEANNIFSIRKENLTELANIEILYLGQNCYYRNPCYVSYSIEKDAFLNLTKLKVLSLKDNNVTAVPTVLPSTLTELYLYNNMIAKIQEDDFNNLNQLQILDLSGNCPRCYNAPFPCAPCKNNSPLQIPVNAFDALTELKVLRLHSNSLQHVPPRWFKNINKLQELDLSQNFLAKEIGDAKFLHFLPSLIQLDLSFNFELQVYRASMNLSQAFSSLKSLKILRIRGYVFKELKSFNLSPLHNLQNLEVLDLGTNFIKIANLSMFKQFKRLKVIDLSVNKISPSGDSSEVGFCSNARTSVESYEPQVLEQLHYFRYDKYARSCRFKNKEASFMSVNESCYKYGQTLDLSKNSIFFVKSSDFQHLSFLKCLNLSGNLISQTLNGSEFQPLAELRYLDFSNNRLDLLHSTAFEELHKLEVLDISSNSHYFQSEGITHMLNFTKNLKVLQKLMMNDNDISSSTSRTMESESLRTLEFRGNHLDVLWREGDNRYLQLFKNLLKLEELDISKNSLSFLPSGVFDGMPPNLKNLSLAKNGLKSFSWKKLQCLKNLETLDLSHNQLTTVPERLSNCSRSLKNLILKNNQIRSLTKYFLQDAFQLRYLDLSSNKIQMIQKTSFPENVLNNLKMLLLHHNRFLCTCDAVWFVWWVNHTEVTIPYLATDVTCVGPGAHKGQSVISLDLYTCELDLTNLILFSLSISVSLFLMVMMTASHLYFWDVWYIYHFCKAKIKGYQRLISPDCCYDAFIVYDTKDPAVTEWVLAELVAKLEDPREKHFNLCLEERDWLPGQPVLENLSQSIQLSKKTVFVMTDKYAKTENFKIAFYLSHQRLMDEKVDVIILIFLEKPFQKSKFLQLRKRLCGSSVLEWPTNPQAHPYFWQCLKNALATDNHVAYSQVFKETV
# Procedure details: HEK293-Blue-hTLR-7 cells assay (SEAP reporter)
# Assay type: cell-based
# Test conditions: HEK293-Blue-hTLR-7 cells, SEAP reporter, 20 hrs; prodrug; read-out: HEK293-hTLR-7 EC50 (Prodrug)
Field: class. Source value: EC50. Ranges: class A (below 10 µM), class B (10 µM to below 30 µM), class C (30 µM or more)

Below are worked cases with known answers.
{"columns": ["Compound", "Group"],
 "data": [
  ["CCCS(=N)(=O)c1nc(N)c2c(n1)n(Cc1ccccc1)c(=O)n2C(=O)N(C)CCOC (single isomer, unassigned) [Example 2-A]", "class A"],
  ["CCCN(CC)C(=O)n1c(=O)n(Cc2ccccc2)c2nc(S(=N)(=O)CCC)nc(N)c21 (centres unmarked) [Example 3]", "class B"],
  ["CCCCN(C)C(=O)n1c(=O)n(Cc2ccc(Cl)cc2)c2nc([S@@](=N)(=O)CCC)nc(N)c21 [Example 34-A]", "class A"],
  ["CCCCN(CC)C(=O)n1c(=O)n(Cc2ccccc2)c2nc(S(=N)(=O)CCC)nc(N)c21 (centres unmarked) [Example 6]", "class C"],
  ["CCCS(=N)(=O)c1nc(N)c2c(n1)n(Cc1ccccc1)c(=O)n2C(=O)N(C)CCOC(=O)N(CC)CC (centres unmarked) [Example 32]", "class B"]
]}

Assign a category based on measured EC50 for CCCS(=N)(=O)c1nc(N)c2c(n1)n(Cc1ccccc1)c(=O)n2C(=O)N(C)CCN(C)C(=O)OC(C)(C)C (centres unmarked) [Example 27] and give only the class name.
class C

Assign a category based on measured EC50 for CCCS(=N)(=O)c1nc(N)c2c(n1)n(Cc1ccccc1)c(=O)n2C(=O)N(C)CCN(C)C(=O)OCC (centres unmarked) [Example 28] and give only the class name.
class A
